Target Or Test System: SARS-CoV-2 Spike as carried on rVSV-SARS-CoV-2 pseudovirus and authentic WT virus (SARS-CoV-2, UniProt P0DTC2 14-1273)
Assay Notes: cell-based or functional assay
Could you please report measured Neutralization (ng/mL), Pseudovirus IC90 for the items listed next?
Please state the figure in ng/mL; there is no need to write the unit.

The binder listed as AB-5 full-length IgG1 (antibody, V domains shown) VH: EVQLEESGTVLARPGASVKMSCKASGYTFTSYWMHWIKQRPGQGLEWIGAIYPGNGDTNYNQKFKDKAKLTAVKSTSSAYMELSSLTNEDSAVYFCTREGIPQLLNTLDVWGQGTSVTVSS VL: DILMTQSPSSLSASLGERVSLTCRASQEISGYLSWLQEKPDGTIKRLIYAASTLDSGVPKRFSGSRSGSDYSLTISSLESEDFADYYCQQYLSYPWTFGGGTKLEIK shows Neutralization (ng/mL), Pseudovirus IC90 equal to 71.1

The binder listed as AB-9 full-length IgG1 (antibody, V domains shown) VH: EVQLEESGTVLARPGASVKMSCKASGYTFTSYWMHWIKQRPGQGLEWIGAIYPGNSDTNYNQKFKDKAKLTAVTSTSSAYMELSSLTNEDSAVYFCTREGIPQLLRTLDYWGQGTSVTVSS VL: DILMTQSPSSLSASLGERVSLTCRASQEISGYLSWLQEKPDGTIKRLIYAASTLDSGVPKRFSGSRSGSDYSLTISSLESEDFADYYCLQYLSYPWTFGGGTKLEIK shows Neutralization (ng/mL), Pseudovirus IC90 equal to 9.95

The binder listed as AB-2 full-length IgG1 (antibody, V domains shown) VH: EVQLEESGTVLARPGASVKMSCKASGYTFTTYWMHWIKQRPGQGLEWIGAIYPGNGDTNYNQKFKDKAKLTAVKSTSSAYMELSSLTNEDSAVYFCTREGIPQLLRTLDYWGQGTSVTVSS VL: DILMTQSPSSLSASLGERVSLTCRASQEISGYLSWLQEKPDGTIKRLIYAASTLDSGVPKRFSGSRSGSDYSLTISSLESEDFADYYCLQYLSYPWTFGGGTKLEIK shows Neutralization (ng/mL), Pseudovirus IC90 equal to 760

The binder listed as AB-1 full-length IgG1 (antibody, V domains shown) VH: EVQLEESGTVLARPGASVKMSCKASGYTFTTYWMHWIKQRPGQGLEWIGAIYPGNSDTQYNQKFKDKAKLTAVKSTSSAYMELSSLTNEDSAVYFCTREGIPQLLRTLDYWGQGTSVTVSS VL: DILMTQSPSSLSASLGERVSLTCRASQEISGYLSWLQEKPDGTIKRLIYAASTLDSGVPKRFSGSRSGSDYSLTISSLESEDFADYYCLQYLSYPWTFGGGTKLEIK shows Neutralization (ng/mL), Pseudovirus IC90 equal to 9.56

The binder listed as AB-6 full-length IgG1 (antibody, V domains shown) VH: EVQLEESGTVLARPGASVKMSCKASGYTFTSYWMHWIKQRPGQGLEWIGAIYPGNSDTNYNQKFKDKAKLTAVKSTSSAYMELSSLTNEDSAVYFCTREGIPQLTRTLDYWGQGTSVTVSS VL: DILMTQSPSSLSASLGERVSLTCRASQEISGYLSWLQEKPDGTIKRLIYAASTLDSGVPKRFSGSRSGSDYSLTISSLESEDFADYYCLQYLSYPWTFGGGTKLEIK shows Neutralization (ng/mL), Pseudovirus IC90 equal to 58.4
